Measured Ki values are reported for all entries that follow.
Target: Human thrombin (Homo sapiens)
Construct: Human thrombin (8.3 mg/ml) was obtained from Hematologic Technologies Inc; purchased Hematologic Technologies Inc. (Essex Junction, VT, USA)
Assay: Thrombin induced hydrolysis of specific substrates in buffer system
Assay type: biochemical
Conditions: fast fluorogenic substrate (SFLUO); calculated from IC50 assuming a competitive mechanism of inhibition; read-out: Inhibition of specific thrombin substrate hydrolysis in buffer system KI
// return numeric value only (unit: µM, not printed)

Reference set (2 entries):
>>> experimentalresult("CC12CCC3C(CC=C4CC(SC(=N)N)CCC43C)C1CCC2=O (stereo not shown) [NSC 41339]")
27.6
>>> experimentalresult("CC(=O)C1CCC2C3CC=C4CC(SC(=N)N)CCC4(C)C3CCC12C (stereo not shown) [NSC 123477]")
8.6

// Input: Cc1ccc2nc(-c3ccc(CSC(=N)N)cc3)oc(=O)c2c1 [NSC 328131] . Output its Ki only.
4

Return reported Ki. Input molecule: CC(C)(C)CC(C)(C)c1ccc(OCCSC(=N)N)cc1 [NSC 4482]
0.4
